- MEASURED ON: PDE2 (Homo sapiens)
- Sequence (O00408 whole entry): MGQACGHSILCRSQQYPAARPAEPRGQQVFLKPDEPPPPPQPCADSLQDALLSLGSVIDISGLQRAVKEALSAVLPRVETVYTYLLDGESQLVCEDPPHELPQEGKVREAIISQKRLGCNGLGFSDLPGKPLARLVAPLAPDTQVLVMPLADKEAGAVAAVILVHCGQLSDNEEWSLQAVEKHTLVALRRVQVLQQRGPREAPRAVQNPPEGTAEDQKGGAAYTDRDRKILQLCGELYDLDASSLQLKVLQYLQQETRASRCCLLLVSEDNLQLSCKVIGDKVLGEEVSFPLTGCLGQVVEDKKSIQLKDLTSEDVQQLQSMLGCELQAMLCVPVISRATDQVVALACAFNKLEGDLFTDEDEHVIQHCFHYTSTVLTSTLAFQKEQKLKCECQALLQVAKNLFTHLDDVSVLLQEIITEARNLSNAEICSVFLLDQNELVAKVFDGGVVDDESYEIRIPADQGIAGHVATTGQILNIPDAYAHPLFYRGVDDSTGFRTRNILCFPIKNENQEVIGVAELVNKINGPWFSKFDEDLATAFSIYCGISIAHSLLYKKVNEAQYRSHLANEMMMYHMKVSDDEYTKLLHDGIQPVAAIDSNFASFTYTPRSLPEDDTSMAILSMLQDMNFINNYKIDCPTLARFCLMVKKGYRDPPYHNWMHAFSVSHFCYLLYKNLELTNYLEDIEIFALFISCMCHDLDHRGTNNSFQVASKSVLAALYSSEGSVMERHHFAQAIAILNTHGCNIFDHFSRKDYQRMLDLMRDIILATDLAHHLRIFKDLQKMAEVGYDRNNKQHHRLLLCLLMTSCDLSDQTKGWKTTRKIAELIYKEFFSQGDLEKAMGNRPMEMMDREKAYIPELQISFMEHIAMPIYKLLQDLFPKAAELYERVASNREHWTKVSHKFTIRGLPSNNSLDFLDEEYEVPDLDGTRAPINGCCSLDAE
- TEST METHOD NOTES: PDE inhibition, PDE2
OUTCOME MEASURE: IC50 (µM)
Numbers only, in µM.

# lookup: IC50 of CCOC(=O)c1cc(-c2ccccc2)n(-c2cccc([N+](=O)[O-])c2)c1C
4.5

* * *

- MEASURED ON: human recombinant PDE4B (Homo sapiens, UniProt Q07343)
- Construct: made in house; host or cells: Saccharomyces cerevisiae, strain YI23 harboring HDUN2.32
- Sequence (Q07343 whole entry): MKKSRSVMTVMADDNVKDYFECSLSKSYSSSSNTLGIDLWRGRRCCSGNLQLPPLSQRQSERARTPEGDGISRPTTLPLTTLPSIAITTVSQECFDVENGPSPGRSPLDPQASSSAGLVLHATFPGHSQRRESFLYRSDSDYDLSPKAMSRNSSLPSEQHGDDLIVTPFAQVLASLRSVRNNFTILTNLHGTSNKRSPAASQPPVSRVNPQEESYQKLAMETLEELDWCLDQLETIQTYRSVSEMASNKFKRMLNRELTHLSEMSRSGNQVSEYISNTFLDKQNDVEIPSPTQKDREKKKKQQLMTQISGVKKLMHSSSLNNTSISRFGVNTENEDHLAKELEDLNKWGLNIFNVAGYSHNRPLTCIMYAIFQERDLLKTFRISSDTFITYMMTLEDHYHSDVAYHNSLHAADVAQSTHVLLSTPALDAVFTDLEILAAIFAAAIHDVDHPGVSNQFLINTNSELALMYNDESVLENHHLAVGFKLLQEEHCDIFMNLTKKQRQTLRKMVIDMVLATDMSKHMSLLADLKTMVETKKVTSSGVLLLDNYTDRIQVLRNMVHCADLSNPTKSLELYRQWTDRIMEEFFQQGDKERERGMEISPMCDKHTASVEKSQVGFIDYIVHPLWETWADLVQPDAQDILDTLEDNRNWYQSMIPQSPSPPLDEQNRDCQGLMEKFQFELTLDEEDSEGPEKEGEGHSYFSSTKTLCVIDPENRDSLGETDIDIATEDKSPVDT
- TEST METHOD NOTES: PDE inhibition, PDE4B
- Assay type: biochemical
OUTCOME MEASURE: IC50 (nM)
One number for each entry, in nM.

For CCOC(=O)c1cc(-c2ccccc2)n(-c2cccc([N+](=O)[O-])c2)c1C , what is its reported IC50?
150

* * *

- MEASURED ON: UniProt:Q14432
- Sequence (Q14432 whole entry): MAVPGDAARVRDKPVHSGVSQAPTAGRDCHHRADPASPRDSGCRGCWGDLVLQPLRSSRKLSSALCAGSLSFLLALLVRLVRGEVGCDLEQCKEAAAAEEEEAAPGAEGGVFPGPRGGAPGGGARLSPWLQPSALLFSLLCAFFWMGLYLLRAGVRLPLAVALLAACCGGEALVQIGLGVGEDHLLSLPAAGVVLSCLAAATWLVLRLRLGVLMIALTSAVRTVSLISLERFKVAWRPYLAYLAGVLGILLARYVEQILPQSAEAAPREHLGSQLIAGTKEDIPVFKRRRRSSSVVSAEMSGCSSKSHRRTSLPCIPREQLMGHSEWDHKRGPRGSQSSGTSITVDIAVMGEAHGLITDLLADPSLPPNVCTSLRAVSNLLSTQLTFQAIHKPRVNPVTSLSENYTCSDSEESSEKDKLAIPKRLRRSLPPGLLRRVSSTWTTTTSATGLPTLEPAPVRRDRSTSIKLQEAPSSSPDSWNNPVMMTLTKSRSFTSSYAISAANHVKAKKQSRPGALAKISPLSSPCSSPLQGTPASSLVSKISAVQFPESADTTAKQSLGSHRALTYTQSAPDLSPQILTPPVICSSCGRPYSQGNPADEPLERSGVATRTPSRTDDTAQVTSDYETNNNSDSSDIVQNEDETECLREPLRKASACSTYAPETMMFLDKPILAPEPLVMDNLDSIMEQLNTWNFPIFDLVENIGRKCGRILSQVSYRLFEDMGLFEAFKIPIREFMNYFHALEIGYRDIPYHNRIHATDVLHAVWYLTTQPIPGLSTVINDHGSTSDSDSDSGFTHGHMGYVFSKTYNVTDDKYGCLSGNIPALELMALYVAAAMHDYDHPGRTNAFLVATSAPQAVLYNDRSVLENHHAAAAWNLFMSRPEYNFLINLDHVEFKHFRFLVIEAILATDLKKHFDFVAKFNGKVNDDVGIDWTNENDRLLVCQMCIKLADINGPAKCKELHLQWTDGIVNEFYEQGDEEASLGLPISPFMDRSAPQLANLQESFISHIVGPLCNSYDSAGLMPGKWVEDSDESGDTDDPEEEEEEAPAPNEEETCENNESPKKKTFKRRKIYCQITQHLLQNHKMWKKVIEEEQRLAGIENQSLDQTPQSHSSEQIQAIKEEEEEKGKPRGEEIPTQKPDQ
OUTCOME MEASURE: IC50 (µM)
Numbers only, in µM.

Returns the measured IC50 for the input compound. Input: CCOC(=O)c1cc(-c2ccccc2)n(-c2cccc([N+](=O)[O-])c2)c1C [Example 22]
89

* * *

- MEASURED ON: human recombinant PDE4 (Homo sapiens)
- Sequence (Q07343 1-564 isoform Q07343-2): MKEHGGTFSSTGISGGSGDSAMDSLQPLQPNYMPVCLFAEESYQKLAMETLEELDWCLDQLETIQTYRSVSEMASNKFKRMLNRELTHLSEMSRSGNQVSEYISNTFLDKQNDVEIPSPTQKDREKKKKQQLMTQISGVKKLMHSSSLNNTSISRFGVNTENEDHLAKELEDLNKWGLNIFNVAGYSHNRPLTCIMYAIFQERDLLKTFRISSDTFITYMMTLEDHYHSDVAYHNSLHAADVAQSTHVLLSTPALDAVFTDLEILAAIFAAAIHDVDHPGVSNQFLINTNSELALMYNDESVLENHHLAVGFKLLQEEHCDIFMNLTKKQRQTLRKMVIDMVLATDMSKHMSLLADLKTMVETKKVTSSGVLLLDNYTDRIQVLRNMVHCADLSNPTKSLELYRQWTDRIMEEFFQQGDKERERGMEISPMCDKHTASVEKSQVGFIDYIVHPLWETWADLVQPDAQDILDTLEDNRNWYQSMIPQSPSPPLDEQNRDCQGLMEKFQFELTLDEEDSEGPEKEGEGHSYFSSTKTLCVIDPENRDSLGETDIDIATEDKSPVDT
- TEST METHOD NOTES: Inhibition of human recombinant PDE4 (IC50)
Task for the reader: assign each of the following molecules its reported IC50.
Numbers only, in µM.

// known answers, use as guide
INSERT INTO measurements (smiles, readout_number) VALUES
  ('CCOC(=O)c1cc(C)n(-c2cccc(Cl)c2)c1-c1ccccc1', 5.45),
  ('CCOC(=O)c1cccc(-n2c(C)cc(C(=O)OCC)c2-c2ccccc2)c1', 8.7),
  ('CCOC(=O)c1cc(C)n(-c2cccc(S(C)(=O)=O)c2)c1-c1ccccc1', 4.58);

Working through the 8 molecules below one at a time, give IC50 for each.
1. CCOC(=O)c1cc(C)n(-c2cccc(Cl)c2Cl)c1-c1ccccc1
2. CCOC(=O)c1cc(-c2ccccc2)n(C2CCCCC2)c1C
3. CCOC(=O)c1cc(C)n(-c2cccc(C)c2)c1-c1ccccc1
4. CCOC(=O)c1cc(-c2ccccc2)n(-c2ccc([N+](=O)[O-])cn2)c1C
5. CCOC(=O)c1cc(-c2ccccc2)n(-c2ccccc2[N+](=O)[O-])c1C
6. CCOC(=O)c1cc(C)n(-c2cccc(F)c2)c1-c1ccccc1
7. CCOC(=O)c1cc(C)n(-c2cccc(C(N)=O)c2)c1-c1ccccc1
8. CCOC(=O)c1cc(-c2ccccc2)n(-c2cccc(Cl)c2)c1C

1: 1.49; 2: 0.99; 3: 2.9; 4: 5.74; 5: 1.65; 6: 13.2; 7: 0.22; 8: 0.2

Batch lookup, IC50 per entry.
1. CCOC(=O)c1cc(C)n(Cc2cccc([N+](=O)[O-])c2)c1-c1ccccc1
2. CCOC(=O)c1cc(C)n(-c2cccc(N(C)C)c2)c1-c1ccccc1
3. CCOC(=O)c1cc(C)n(-c2ccc([N+](=O)[O-])cc2)c1-c1ccccc1
4. CCOC(=O)c1cc(C)n(-c2cccc(N)c2)c1-c1ccccc1
5. CCOC(=O)c1cc(-c2ccccc2)n(-c2cccnc2)c1C
6. CCOC(=O)c1cc(-c2ccccc2)n(-c2cccc([N+](=O)[O-])c2)c1C
7. CCOC(=O)c1cc(-c2ccccc2)n(-c2cccc(N(C)C)c2)c1C

5.13
0.15
110
1.29
1.28
0.15
8.22

Dear colleague, could you send me IC50 for each of the items below? Thanks.
1. Cc1cc(C(=O)O)c(-c2ccccc2)n1-c1cccc([N+](=O)[O-])c1
2. CCOC(=O)c1cc(C)n(-c2cccnc2)c1-c1ccccc1
3. CCOC(=O)c1cc(C)n(-c2ccc([N+](=O)[O-])cn2)c1-c1ccccc1
4. CCOC(=O)c1cc(C)n(-c2cccc(Br)c2)c1-c1ccccc1

1: 15.6; 2: 13.4; 3: 133; 4: 8.55

Could you tell me IC50 for each of these molecules? They are listed below.
1. CCOC(=O)c1cc(-c2ccccc2)n(-c2cccc(C(F)(F)F)c2)c1C
2. CCOC(=O)c1cc(C)n(-c2cccc(C(=O)O)c2)c1-c1ccccc1
3. CCOC(=O)c1cc(-c2ccccc2)n(-c2ccc(N)cc2)c1C
4. CCOC(=O)c1cc(C)n(-c2cccc(C(F)(F)F)c2)c1-c1ccccc1

[2.28, 16.5, 1.3, 6.78]

# batch: return IC50 for each of the 2 molecules below
1. CCOC(=O)c1cc(C)n(-c2cccc(C(C)=O)c2)c1-c1ccccc1
2. CCOC(=O)c1cc(C)n(-c2cc(C(F)(F)F)cc(C(F)(F)F)c2)c1-c1ccccc1

1. 6.83
2. 194

// for each molecule in input: emit IC50
1. CCOC(=O)c1cc(-c2ccccc2)n(-c2cccc(N)c2)c1C
2. CCOC(=O)c1cc(-c2ccccc2)n(Cc2cccc([N+](=O)[O-])c2)c1C
3. CCOC(=O)c1cc(-c2ccccc2)n(-c2cccc(S(C)(=O)=O)c2)c1C
4. CCOC(=O)c1cc(C)n(-c2ccc(N)cc2)c1-c1ccccc1
5. CCOC(=O)c1cc(-c2ccccc2)n(-c2cccc(Br)c2)c1C
6. CCOC(=O)c1cc(-c2ccccc2)n(-c2ccc([N+](=O)[O-])cc2)c1C
7. CCOC(=O)c1cc(-c2ccccc2)n(-c2cccc(F)c2)c1C

1. 1.42
2. 13.4
3. 4.38
4. 16
5. 3.07
6. 1.4
7. 0.62

Quick one: IC50 for CCOC(=O)c1cc(-c2ccccc2)n(-c2cccc(C(N)=O)c2)c1C ?
5.45
